- Tested on: NCI-H322M
measurement.name: CC50 (µM)
One number for each entry, in µM.

Problem: Given C=C1C(=O)O[C@H]2[C@H]1CC/C(COC(=O)c1cc3ccccc3[nH]1)=C\CC[C@@]1(C)O[C@@H]21 , report its CC50 on NCI-H322M.
Solution: 6.47

---

- Tested on: SK-OV-3
measurement.name: CC50 (µM)
Numbers only, in µM.

Problem: Given the compound C=C1C(=O)O[C@H]2[C@H]1CC/C(COC(=O)c1cc3ccccc3[nH]1)=C\CC[C@@]1(C)O[C@@H]21 , write its reported CC50.
Solution: 11.7

---

- Tested on: MALME-3M
measurement.name: CC50
Write down the value, and be sure its unit follows.

Problem: Given C=C1C(=O)O[C@H]2[C@H]1CC/C(COC(=O)c1cc3ccccc3[nH]1)=C\CC[C@@]1(C)O[C@@H]21 , report its CC50 on MALME-3M.
Solution: 6.07 µM
